Source of measurements: ChEMBL document CHEMBL2176936

tested on: Rattus norvegicus; assay: Anabolic activity in ORX rat model assessed as weight of levator ani muscle at 30 mg/kg/day, po administered for 4 days; assay type: functional
observed.property: Activity (%)

{"molecule": "CN1C(=O)N(c2ccc(C#N)c(C(F)(F)F)c2)C(=O)C1(CO)c1ccccc1 (racemic)", "measured.on": "Rattus norvegicus", "experimental.result": 96}
{"molecule": "CN1C(=O)N(c2ccc(C#N)c(C(F)(F)F)c2)C(=O)C1(CO)c1ccc(O)cc1 (racemic)", "measured.on": "Rattus norvegicus", "experimental.result": 82}
{"molecule": "CN1C(=O)N(c2ccc(C#N)c(C(F)(F)F)c2)C(=O)[C@@]1(C)c1ccc(O)cc1", "measured.on": "Rattus norvegicus", "experimental.result": 77}
{"molecule": "CN1C(=O)N(c2ccc(C#N)c(C(F)(F)F)c2)C(=O)C1(C)c1ccc(O)cc1 (racemic)", "measured.on": "Rattus norvegicus", "experimental.result": 89}
{"molecule": "CN1C(=O)N(c2ccc(C#N)c(C(F)(F)F)c2)C(=O)[C@@]1(CO)c1ccccc1", "measured.on": "Rattus norvegicus", "experimental.result": 106}
{"molecule": "COc1ccc(C2(CO)C(=O)N(c3ccc(C#N)c(C(F)(F)F)c3)C(=O)N2C)cc1 (racemic)", "measured.on": "Rattus norvegicus", "experimental.result": 130}

====

assay: Oral bioavailability in rat at 10 mg/kg and 3 mg/kg, iv; type: ADME, organism-based; settings: in vivo
Decision: bioavailability compared against 60%; not below it gives Y, below it gives N.

{"compound": "CN1C(=O)N(c2ccc(C#N)c(C(F)(F)F)c2)C(=O)C1(CO)c1ccccc1 (racemic)", "answer.label": "Y"}
{"compound": "CN1C(=O)N(c2ccc(C#N)c(C(F)(F)F)c2)C(=O)C1(C)c1ccc2[nH]cnc2c1 (racemic)", "answer.label": "Y"}
{"compound": "CN1C(=O)N(c2ccc(C#N)c(C(F)(F)F)c2)C(=O)C1(CO)c1ccc(F)cc1 (racemic)", "answer.label": "Y"}
{"compound": "CN1C(=O)N(c2ccc(C#N)c(C(F)(F)F)c2)C(=O)C1(C)c1ccc(O)cc1 (racemic)", "answer.label": "N"}
{"compound": "CCN1C(=O)N(c2ccc(C#N)c(C(F)(F)F)c2)C(=O)C1(CO)c1ccccc1 (racemic)", "answer.label": "Y"}
